Every entry's value here was drawn from ChEMBL document CHEMBL3112399.

assay: Volume of distribution in mouse at 5 mg/kg, iv; assay type: ADME, organism-based; set-up: dose 5 mg/kg, route intravenous; conditions: in vivo
outcome.measure: Vd (L/kg)
One number for each entry, in L/kg.

IN: Which Vd value is on record for CC(C)OC(=O)N1CCC(n2ncc3c(Oc4ccc(S(C)(=O)=O)cc4)ncnc32)CC1 ?
OUT: 0.46

====

target: Cytochrome P450 2C9 (Homo sapiens)
Sequence (P11712 whole entry): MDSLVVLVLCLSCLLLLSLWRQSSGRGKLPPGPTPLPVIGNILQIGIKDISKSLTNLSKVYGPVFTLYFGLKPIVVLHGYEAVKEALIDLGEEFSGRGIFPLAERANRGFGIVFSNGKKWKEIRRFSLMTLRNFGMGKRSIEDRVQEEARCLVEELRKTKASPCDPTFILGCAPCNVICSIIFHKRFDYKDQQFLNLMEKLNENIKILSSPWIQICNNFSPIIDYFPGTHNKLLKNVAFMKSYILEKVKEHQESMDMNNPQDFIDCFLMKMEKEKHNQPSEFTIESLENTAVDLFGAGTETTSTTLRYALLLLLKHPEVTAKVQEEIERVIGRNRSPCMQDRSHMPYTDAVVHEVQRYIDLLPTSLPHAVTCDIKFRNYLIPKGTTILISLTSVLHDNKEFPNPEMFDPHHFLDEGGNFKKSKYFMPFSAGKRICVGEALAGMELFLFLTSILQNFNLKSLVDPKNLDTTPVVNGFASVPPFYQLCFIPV
outcome.measure: pIC50
Give bare numbers, as −log10 of the molar value.

IN: Which pIC50 value is on record for CC(C)(C)OC(=O)N1CCC(n2ncc3c(Nc4ccc(S(C)(=O)=O)cc4F)ncnc32)CC1 ?
OUT: 6.05

====

assay: Clearance in mouse at 5 mg/kg, iv; type: ADME, organism-based; design: dose 5 mg/kg, route intravenous; details: in vivo
outcome.measure: clearance (mL/min/kg)
Answers are plain numbers, in mL/min/kg.

IN: Which clearance value is on record for CC(C)OC(=O)N1CCC(n2ncc3c(Oc4ccc(S(C)(=O)=O)cc4)ncnc32)CC1 ?
OUT: 3.3

====

Kindly state microsomal CLint for each of the entries shown.
assay: Clearance in mouse liver microsomes; assay type: ADME, Microsome; conditions: read-out: CLH
One number for each entry, in µL/min/mg.

Consider the following illustrative entries.
[[record]]
given_smiles = "CC(C)CC(=O)N1CCC(n2ncc3c(Oc4ccc(S(C)(=O)=O)cc4)ncnc32)CC1"
data_value = 29

[[record]]
given_smiles = "CC(C)OC(=O)N1CCC(n2ncc3c(Oc4ccc(S(C)(=O)=O)cc4)ncnc32)CC1"
data_value = 85

[[record]]
given_smiles = "CC(C)(C)OC(=O)N1CCC(n2ncc3c(Nc4ccc(S(C)(=O)=O)cc4F)ncnc32)CC1"
data_value = 70

[[record]]
given_smiles = "CS(=O)(=O)c1ccc(Oc2ncnc3c2cnn3C2CCN(Cc3ccc(C(F)(F)F)cc3)CC2)cc1"
data_value = 114


Now let's try a different one.
IN: Which microsomal CLint value is on record for CC(C)(C)OC(=O)N1CCC(n2ncc3c(Oc4ccc(S(C)(=O)=O)cc4)ncnc32)CC1 ?
OUT: 86

====

assay: Half life in mouse at 5 mg/kg, iv; format: ADME, organism-based; set-up: dose 5 mg/kg, route intravenous; details: in vivo
outcome.measure: half-life (h)
One number for each entry, in h.

IN: Which half-life value is on record for CC(C)OC(=O)N1CCC(n2ncc3c(Oc4ccc(S(C)(=O)=O)cc4)ncnc32)CC1 ?
OUT: 1.6

====

Kindly state Emax for each of the entries shown.
system: HIT-T15; assay: Agonist activity at GPR119 receptor in hamster HIT-T15 cells assessed as intracellular cAMP level relative to AR-231,453; format: cell-based; details: Cricetinae
Numbers only, in %.

Report Emax for each item below.
1. CC(C)OC(=O)N1CCC(n2ncc3c(Nc4ccc(S(C)(=O)=O)cc4)ncnc32)CC1
2. CC(C)C(=O)N1CCC(n2ncc3c(Oc4ccc(S(C)(=O)=O)cc4)ncnc32)CC1
3. CS(=O)(=O)c1ccc(Oc2ncnc3c2cnn3C2CCN(Cc3ccc(F)cc3)CC2)cc1
4. CC(C)(C)OC(=O)N1CCC(n2ncc3c(Oc4ccc(C(C)(C)C)cc4)ncnc32)CC1

OUT:
92
60
69
13

====

system: HIT-T15; test: Agonist activity at GPR119 receptor in hamster HIT-T15 cells assessed as intracellular cAMP level relative to AR-231,453; format: cell-based; details: Cricetinae
Kindly state Emax for each of the entries shown.
One number for each entry, in %.

Consider the following illustrative entries.
[[record]]
given_smiles = "COc1cc(OC)cc(Oc2ncnc3c2cnn3C2CCN(C(=O)OC(C)(C)C)CC2)c1"
assay_target = "HIT-T15"
outcome_measure = "Emax"
data_value = 34

[[record]]
given_smiles = "CC(C)(C)OC(=O)N1CCC(n2ncc3c(Oc4ccc(S(C)(=O)=O)cc4)ncnc32)CC1"
assay_target = "HIT-T15"
outcome_measure = "Emax"
data_value = 101

[[record]]
given_smiles = "CS(=O)(=O)c1ccc(Oc2ncnc3c2cnn3C2CCN(Cc3ccc(Cl)cc3)CC2)cc1"
assay_target = "HIT-T15"
outcome_measure = "Emax"
data_value = 73

[[record]]
given_smiles = "CC(C)(C)OC(=O)N1CCC(n2ncc3c(Nc4ccc(S(C)(=O)=O)cc4)ncnc32)CC1"
assay_target = "HIT-T15"
outcome_measure = "Emax"
data_value = 105

[[record]]
given_smiles = "CC(C)COC(=O)N1CCC(n2ncc3c(Oc4ccc(S(C)(=O)=O)cc4)ncnc32)CC1"
assay_target = "HIT-T15"
outcome_measure = "Emax"
data_value = 84


Report Emax for each item below.
1. CC(C)OC(=O)N1CCC(n2ncc3c(Oc4ccc(S(C)(=O)=O)cc4)ncnc32)CC1
2. CC(C)(C)OC(=O)N1CCC(n2ncc3c(Oc4cc(F)c(F)cc4F)ncnc32)CC1

OUT:
1. 92
2. 95

Report Emax for each item below.
1. CC(C)(C)OC(=O)N1CCC(n2ncc3c(Oc4cccc(C(C)(C)C)c4)ncnc32)CC1
2. CS(=O)(=O)c1ccc(Oc2ncnc3c2cnn3C2CCN(Cc3cccc(OC(F)(F)F)c3)CC2)cc1
3. CC(C)CC(=O)N1CCC(n2ncc3c(Oc4ccc(S(C)(=O)=O)cc4)ncnc32)CC1

OUT:
1: 27; 2: 54; 3: 59

Report Emax for each item below.
1. CS(=O)(=O)c1ccc(Oc2ncnc3c2cnn3C2CCN(C(=O)CCc3ccccc3)CC2)cc1
2. CC(C)(C)OC(=O)N1CCC(n2ncc3c(Oc4ccc(C(F)(F)F)cc4)ncnc32)CC1
3. CC(C)(C)OC(=O)N1CCC(n2ncc3c(Nc4cc(F)c(F)cc4F)ncnc32)CC1
4. CS(=O)(=O)c1ccc(Oc2ncnc3c2cnn3C2CCN(Cc3ccc(C(F)(F)F)cc3)CC2)cc1
5. CC(C)(C)CC(=O)N1CCC(n2ncc3c(Oc4ccc(S(C)(=O)=O)cc4)ncnc32)CC1
6. CC(C)(C)OC(=O)N1CCC(n2ncc3c(Oc4ccc(C#N)cc4)ncnc32)CC1

OUT:
94
27
97
59
58
87

Report Emax for each item below.
1. CC(C)(C)COC(=O)N1CCC(n2ncc3c(Oc4ccc(S(C)(=O)=O)cc4)ncnc32)CC1
2. CC(C)(C)OC(=O)N1CCC(n2ncc3c(Nc4ccc(S(C)(=O)=O)cc4F)ncnc32)CC1

OUT:
1. 93
2. 103
